Data origin, for the record: patent US20260258115A1

# maps each entry to its Kd
molecular target: RSV prefusion F (preF), DS-Cav1 (Respiratory syncytial virus, UniProt P03420 26-513); experiment: BLI, IgG on anti-human IgG sensor, 100 nM antigen
Value expressed in nM; do not type the unit.

ADI-41593 (antibody, V domains shown, also called Ab 867; Antibody Number 867) VH: QVQLVQSGVEVKKPGESLKISCKGSGYSFTNYWIAWVRQMPGKGLEWMGIIYPGDSDTRYSPSFQGQVTISADKSISTAYVQWSSLKASDTAIYYCARGDILTNSGPDAFDIWGQGTMVTVSS VL: DIQMTQSPSSFSASTGDRVTITCRASQAISSYLAWFQQKPGKAPKLLIYAASTLQSGVPSRFSGSGSGTDFTLTISCLQSEDFATYYCQQYYSYPLTFGGGTKVEIK = 1.83

Moving on to another binder below.
Prompt line: Quote Kd reported for ADI-41660 (antibody, V domains shown) VH: EVQLVQSGAEVKKPGSSVKVSCKASGGTFSRNAISWVRQAPGQGLEWMGGIIPIFGAANYPQKFQGRVTITADKSTSTAYMELSSLRSEDTALYYCARTMGEMTTTPVSIYYYGMDVWGQGTTVTVSS VL: QSVLTQPPSVSAAPGQKVTISCSGSSSNIGINYVSWYQQLPGTAPKLLIYDNNKRPSGIPDRFSGSKSGTSATLGITGLQTGDEADYYCGTWDSSLSAGYVFGSGTKLTVL please.
Response line: 2.94
